Tested on: Inhibin beta A chain (activin A)
TEST_NAME: small molecules binding activin A – biochemical, small-molecule microarray, 635 nm fluorescence scan, primary screen (AID 1107);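 also: mouse activin A protein probed at 4.33 µg/mL on printed slides; score merges bound-protein fluorescence near 667 nm with spot signal-to-noise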
STATED_CONDITIONS: INHBA, higher = more signal
Rule: condition met for composite z-score not less than 0.2, condition not met for anything less.

Query: Determine whether this compound has composite z-score no lower than 0.2: CC(C)[Si]1(C(C)C)OCc2cc(C3CC3)nc(-c3ccc(Oc4ccccc4)cc3)c21
Response: condition met

Query: Same thing, different compound: C=CCC(OC(C)=O)[C@@H]1[C@@H](N(Cc2ccc(-c3ccccc3)cc2)C(=O)c2ccc(-c3ccccc3)cc2)c2cc(OCCCO)ccc2N1C(=O)c1ccc2ccccc2c1 (stereo partly specified)
Response: condition met

Query: Same thing, different compound: COc1ccc([Si](C)(C)[C@@H]2[C@@H](CCO)O[C@]3(C(=O)N(Cc4ccccc4)c4ccc(N5C(=O)c6cccc7cccc5c67)cc43)[C@H]2C)cc1
Response: condition not met
